# tgt: Phenylalanine--tRNA ligase (Escherichia coli)
# methodNotes: Compound was evaluated for the inhibitory activity against Escherichia coli phenylalanyl-tRNA synthetase
valueKind: IC50

O=C(Nc1ccc(Cl)c(Cl)c1)[C@H]1[C@@H](C(=O)O)C2(O[C@H]1c1ccccc1)C(=O)c1ccccc1C2=O    11 µM

Recorded values, source BindingDB's records for doi:10.1016/j.bmcl.2003.11.082.
